# Tested on: human MER (528-end) (Homo sapiens, UniProt Q12866)
# Construct: human MER (528-end)
# Sequence (Q12866 528-999 limits assumed): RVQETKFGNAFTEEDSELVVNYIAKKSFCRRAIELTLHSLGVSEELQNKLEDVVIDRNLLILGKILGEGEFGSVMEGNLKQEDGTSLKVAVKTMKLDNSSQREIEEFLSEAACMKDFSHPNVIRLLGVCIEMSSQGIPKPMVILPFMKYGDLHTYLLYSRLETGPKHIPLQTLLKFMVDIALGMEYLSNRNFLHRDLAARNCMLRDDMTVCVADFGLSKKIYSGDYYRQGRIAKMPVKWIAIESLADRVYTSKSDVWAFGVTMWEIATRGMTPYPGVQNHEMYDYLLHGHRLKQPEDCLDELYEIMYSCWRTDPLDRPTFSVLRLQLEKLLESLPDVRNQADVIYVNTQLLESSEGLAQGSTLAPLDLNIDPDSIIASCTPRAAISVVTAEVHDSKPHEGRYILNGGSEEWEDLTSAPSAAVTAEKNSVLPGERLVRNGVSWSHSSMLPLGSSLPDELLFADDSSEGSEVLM
# Assay comment: HTRF kinase activity biochemical assay, MER;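 note: phosphorylation of a biotin-tagged tyrosine kinase substrate detected by Eu3+-cryptate antibody and streptavidin-XL665 time-resolved fluorescence, read after 1 h at room temperature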
# Measurement context: recombinant kinase, 10 uM ATP, 30 minutes pre-incubation; read-out: HTRF MERTK IC50
Answer each item with its documented pIC50.
When answering, recall that pIC50 equals minus log10 of the concentration in mol/L, and write that number alone.

Can you look up the measured pIC50 of Cn1cc(Nc2ncc(C3CN(c4nc5ccc(C6CCCCC6)cc5o4)C3)nc2C(N)=O)cn1 for me?
8.52

Can you look up the measured pIC50 of Cn1cc(Nc2ccc(C3CN(c4nc5ccc(OCC(C)(C)OP(=O)(O)O)cc5o4)C3)nc2C(N)=O)cn1 for me?
8.74

Can you look up the measured pIC50 of Cn1cc(Nc2ncc(C3CN(c4nc5ccc(CC(=O)N6CCC[C@H]6CO)cc5o4)C3)nc2C(N)=O)cn1 for me?
8.70

Can you look up the measured pIC50 of Cc1ccc2nc(N3CC(c4cnc(Nc5cn[nH]c5)c(C(N)=O)n4)C3)oc2c1 for me?
8.70

Can you look up the measured pIC50 of Cn1cc(Nc2ncc(C3CN(c4nc5ccc(C6CCOC6)cc5o4)C3)nc2C(N)=O)cn1 (stereo not shown) for me?
8.52

---

# Tested on: TYRO3 (455-end) (Homo sapiens)
# Construct: TYRO3 (455-end)
# Sequence (Q06418 455-890 limits assumed): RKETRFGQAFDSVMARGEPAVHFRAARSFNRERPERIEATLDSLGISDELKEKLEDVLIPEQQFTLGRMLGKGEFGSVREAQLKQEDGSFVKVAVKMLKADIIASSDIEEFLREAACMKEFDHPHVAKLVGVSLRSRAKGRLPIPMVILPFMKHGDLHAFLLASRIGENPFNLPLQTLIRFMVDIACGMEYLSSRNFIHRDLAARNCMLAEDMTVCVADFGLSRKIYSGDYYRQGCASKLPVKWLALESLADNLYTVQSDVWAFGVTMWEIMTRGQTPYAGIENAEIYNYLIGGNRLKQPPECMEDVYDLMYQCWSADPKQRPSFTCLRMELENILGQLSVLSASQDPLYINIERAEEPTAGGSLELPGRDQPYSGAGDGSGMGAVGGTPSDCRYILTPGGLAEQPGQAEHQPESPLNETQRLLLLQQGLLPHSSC
# Assay comment: HTRF kinase activity biochemical assay, TYRO3;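 note: biotinylated tyrosine kinase substrate phosphorylation detected via streptavidin-XL665 and Eu3+-cryptate anti-phospho antibody time-resolved fluorescence, read after 1 h detection at room temperature, 384-well format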
# Measurement context: recombinant kinase, 10 uM ATP, 30 minutes pre-incubation; read-out: HTRF TYRO IC50
Readout type: log10 IC50 (log10 of the value in nM)
Scale: decimal log of IC50, IC50 in nM.

Can you look up the measured log10 IC50 of Cn1cc(Nc2ncc(C3CN(c4nc5ccc(CC(=O)N6CCC[C@H]6CO)cc5o4)C3)nc2C(N)=O)cn1 for me?
3.46

Can you look up the measured log10 IC50 of Cn1cc(Nc2ncc(C3CN(c4nc5ccc(OC[C@H]6C[C@H]6CO)cc5o4)C3)nc2C(N)=O)cn1 for me?
1.52

Can you look up the measured log10 IC50 of Cn1cc(Nc2ncc(C3CN(c4nc5ccc(-c6cnn(C)c6)cc5o4)C3)nc2C(N)=O)cn1 for me?
1.90

Can you look up the measured log10 IC50 of COCCn1cc(Nc2ncc(C3CN(c4nc5ccc(C)cc5o4)C3)nc2C(N)=O)cn1 for me?
2.34

Can you look up the measured log10 IC50 of Cn1cc(Nc2ncc(C3CN(c4nc5ccc(CC(=O)N6CCCC6)cc5o4)C3)nc2C(N)=O)cn1 for me?
3.00

Can you look up the measured log10 IC50 of Cn1cc(Nc2ncc(C3CN(c4nc5ccc(OCC6(O)COC6)cc5o4)C3)nc2C(N)=O)cn1 for me?
3.36

Can you look up the measured log10 IC50 of Cn1cc(Nc2ncc(C3CN(c4nc5ccc(OC6CCCC6O)cc5o4)C3)nc2C(N)=O)cn1 (stereo not shown) for me?
1.82
